The measurements presented in this section are drawn from PubChem BioAssay (NCI).

Experiment: NCI Yeast Anticancer Drug Screen. Data for the mlh1 rad18 strain (AID 175)
Settings: S. cerevisiae mlh1 rad18 strain growth inhibition; at 50.0 µM; hits give high values
The panel holds about 79,000 compounds, 15% with a hit somewhere; the sample as a whole holds those more often.
Examples of molecules with documented growth inhibition follow.
Value expressed in %; do not type the unit.

Recorded result, NC(=O)c1ncn2c(=O)n(CCCl)nnc12 , growth inhibition: -47.2

Continuing:
Recorded result, Cc1c([N+](=O)[O-])cc(C(C)C)c(O)c1[N+](=O)[O-] , growth inhibition: 66.2

Recorded result, COc1ccc(C2=C/C(=C/c3ccc(N(CCC#N)CCC#N)cc3)C(=O)O2)cc1 , growth inhibition: -22.8

Recorded result, CC(C)c1ccc(/C=C2\CCC/C(=C\c3ccc(C(C)C)cc3)C2=O)cc1 , growth inhibition: -3.5

Recorded result, CCCCNC(=O)CSc1cc(Cl)c(Cl)cc1Cl , growth inhibition: 13.2
